- Tested on: U2OS
- Procedure Text: Incucyte cell viability with U2OS; also: filed as whole numbers so only -1 and 0 and 1 occur
- Assay type: toxicity, cell-based
- Protocol Conditions: human, 18 h, 10 µM, compound concentration 10 uM, replicate number 1, timepoint 18 hours
Measurement Type: Growth Rate
Response field accepts a number only; no unit should be typed.

Q. Reported Growth Rate for U2OS, given `Nc1c(C(=O)NCc2ccc(C(=O)NCCCC3CCCCC3)cc2)cnn1-c1ccccc1` ?
A. 1

Q. Reported Growth Rate for U2OS, given `Cc1cc(F)c(C(=O)Nc2cccc(-c3nncn3C(C)C)n2)cc1-n1cnc(C2CC2)c1` ?
A. 0

Q. Reported Growth Rate for U2OS, given `CC(C)C(=O)Nc1n[nH]c2cc(-c3cccc(NS(=O)(=O)C4CC4)c3)ccc12` ?
A. 0

Q. Reported Growth Rate for U2OS, given `O=C(O)[C@@H]1[C@@H](Cn2nnc3ccccc3c2=O)CC[C@H]1C(=O)c1ccc(OCCC2CCOCC2)cc1` ?
A. 0

Q. Reported Growth Rate for U2OS, given C[C@H]1CC(=O)Nc2cc(C(=O)NCCC3CC3)ccc2N1C(=O)N1CC2CC2C1 (stereo partly drawn) ?
A. 1

Q. Reported Growth Rate for U2OS, given Cl.N#Cc1ccc2[nH]cc(CCCCN3CCN(c4ccc5oc(C(N)=O)cc5c4)CC3)c2c1 [VILAZODONE HYDROCHLORIDE] ?
A. 0

Q. Reported Growth Rate for U2OS, given `CC1=C(C#N)C(c2ccc3[nH]nc(C)c3c2)C(C#N)=C(C)N1` ?
A. 0

Q. Reported Growth Rate for U2OS, given `CN(c1ccnc(CNc2nc(Nc3ccc4c(c3)CC(=O)N4)ncc2C(F)(F)F)n1)S(C)(=O)=O` ?
A. 0

Recorded values, source ChEMBL document CHEMBL4689842.
